# Test system: B cell
# EXPERIMENT SUMMARY: Cytotoxicity screening of chemical probes in isolated B cell assay. Data is normalized to DMSO control, the cell viability average of replicates are reported. Reduction of ATP level more than 20% indicate compromised cell health status.
# APPLIED CONDITIONS: human, 1 µM
Non-standard residues stand in square brackets, D forms with d. Residues, ends and D or L forms follow the SMILES beside them. Arg(Me) = CNC(=N)NCCC[C@H](N)C(=O)O; d4Pal = N[C@H](Cc1ccncc1)C(=O)O; azaGly = NNC(=O)O
Recorded measurements of Cell Viability, one per entry
Report the value in % with no unit label.

COMPOUND	Cell Viability [%]
COc1ccncc1C(=O)NC(=O)Nc1ccc(-c2ccccc2)c(C(F)(F)F)c1	100.618
c1ccc2oc(-c3csc(C4CCN(Cc5nc6ncccc6[nH]5)CC4)n3)cc2c1	83.0928
O=C(Nc1cccnn1)N1CCC(=Cc2cccc(Oc3ccc(C(F)(F)F)cn3)c2)CC1	98.4854
CNC(=N)NCCC[C@H](NC(=O)[C@H](CC(C)C)NC(=O)NNC(=O)[C@H](Cc1ccccc1)NC(=O)[C@H](CO)NC(=O)[C@H](CC(N)=O)NC(=O)[C@@H](Cc1ccncc1)NC(=O)[C@H](N)Cc1ccc(O)cc1)C(=O)N[C@@H](Cc1ccccc1)C(N)=O [KISS1-305] (H-[dY][d4Pal]NSF[azaGly]L[Arg(Me)]F-NH2)	101.037
Cc1ccc2nc(CNCCCOc3ccccc3)cc(O)c2c1	96.7712
CNC(=O)c1cc(C(=O)NC2CC2)cn(Cc2ccccc2)c1=O	102.307
CN1CCN(c2cnc3c(C4CCN(C(=O)c5ccc(OC(F)(F)F)cc5N)CC4)ncnc3c2)CC1	96.4414
COc1ccccc1C(=O)Nc1cc2c(cc1N1CCCC1)n(C)c(=O)n2C	98.47

Q: So what's the measured Cell Viability for this one? "Cc1ccc2c(c1CCC(=O)O)CC[C@@H](NS(=O)(=O)c1ccc(Cl)cc1)C2"
Ans: 102.464

Q: So what's the measured Cell Viability for this one? "CC(C)N(CCCNC(=O)Nc1ccc(C(C)(C)C)cc1)C[C@H]1O[C@@H](n2cc(Br)c3c(N)ncnc32)[C@H](O)[C@@H]1O"
Ans: 95.9292

Q: So what's the measured Cell Viability for this one? "CCN(C(=O)CO)[C@H]1CN(/C(=N\C#N)Nc2cccc(OC(F)F)c2)N=C1c1ccc(Cl)c(Cl)c1"
Ans: 100.495

Q: So what's the measured Cell Viability for this one? "CC(C)N(CCCCOCC(=O)NS(C)(=O)=O)c1cnc(-c2ccccc2)c(-c2ccccc2)n1"
Ans: 99.3334

Q: So what's the measured Cell Viability for this one? "CC(C)NC(=O)N1CC[C@H](NC2=Nc3cc(F)ccc3N(CC(F)F)c3ccc(Cl)cc32)C1"
Ans: 98.1837

###

# Test system: B cell
# EXPERIMENT SUMMARY: Cytotoxicity screening of chemical probes in isolated B cell assay. Data is normalized to DMSO control, the cell viability average of replicates are reported. Reduction of ATP level more than 20% indicate compromised cell health status.
# APPLIED CONDITIONS: human, 1 µM
MEASURED QUANTITY: Cell Viability

Answered examples (3):
MOLECULE	VALUE
O=C(N1CCS(=O)(=O)CC1)N1C[C@H](c2ccc(OC(F)(F)F)cc2)C[C@H](c2nc(C3CC3)no2)C1 [BAY-386]	95.9614%
O=C(O)Cc1ccccc1Nc1c(Cl)cccc1Cl [DICLOFENAC]	103.39%
CN(C)[C@@H]1CCN(c2cc(-c3ccccc3)nc3ccnn23)C1 [(R)-ZINC-3573]	100.756%

Q: So what's the measured Cell Viability for this one? CO[C@@H](C)c1c(Nc2ccc([C@H](N(C)C(=O)C3CCS(=O)(=O)CC3)C(F)(F)F)cc2)cnc2cc(Cl)nn12 [NVS-MALT1]
Ans: 90.4509%

###

Recorded measurements of Cell Viability, one per entry
# Test system: B cell
# EXPERIMENT SUMMARY: Cytotoxicity screening of chemical probes in isolated B cell assay. Data is normalized to DMSO control, the cell viability average of replicates are reported. Reduction of ATP level more than 20% indicate compromised cell health status.
# APPLIED CONDITIONS: human, 0.1 µM
Report the value in % with no unit label.

Q: Value wanted: Cell Viability (B cell) of entry CCCOc1ccc([C@H]2[C@H](C(=O)O)[C@@H](c3ccc4c(c3)OCO4)CN2CC(=O)Nc2c(CC)cccc2CC)cc1 [A-192621]
Ans: 97.3784

###

# Test system: B cell
# EXPERIMENT SUMMARY: Cytotoxicity screening of chemical probes in isolated B cell assay. Data is normalized to DMSO control, the cell viability average of replicates are reported. Reduction of ATP level more than 20% indicate compromised cell health status.
# APPLIED CONDITIONS: human, 1 µM
Recorded measurements of Cell Viability, one per entry
Report the value in % with no unit label.

Answered examples (5):
COMPOUND	Cell Viability, %
O=C(NCCCN1CCOC1=O)c1cnc(NCc2cc(Br)ccc2Br)nc1NC1CCCC1	100.266
O=c1nc(-c2ccccn2)sc2ccccc12	96.3183
O=C(c1ccc(C(=O)N2CCC(N3CCCC3)CC2)c(Nc2ccccc2)c1)N1CCC(N2CCCC2)CC1	93.0388
CC(=O)Nc1c(C(C)=O)c(=O)n(C)c2nc(-c3ccc(Cl)cc3Cl)c(-c3ccc(Cl)cc3)cc12	96.2894
Cl.O=c1c2cccn2c2ccccc2n1CCCN1CCC(c2ccc(Cl)cc2)CC1	96.0052

We now examine a further compound.
Q: So what's the measured Cell Viability for this one? "CCCCN(Cc1ccccc1)C(=O)c1ccc(S(=O)(=O)Nc2ccccc2)cc1"
Ans: 99.9127

###

# Test system: B cell
# EXPERIMENT SUMMARY: Cytotoxicity screening of chemical probes in isolated B cell assay. Data is normalized to DMSO control, the cell viability average of replicates are reported. Reduction of ATP level more than 20% indicate compromised cell health status.
# APPLIED CONDITIONS: human, 1 µM
MEASURED QUANTITY: Cell Viability

MOLECULE SMILES	Cell Viability
Cc1cnc(-c2cc(Cl)ccc2F)cc1-n1c(=O)n(CC(N)=O)c2cnccc21	103.993%
CCOC(=O)CCNc1cc(N2CCc3ccccc3CC2)nc(-c2ccccn2)n1	95.6308%

We now examine a further compound.
Q: So what's the measured Cell Viability for this one? "CC(C)(O)c1cncc(-c2nc3ccc(F)cc3n2C2CC2)c1"
Ans: 100.571%

###

Recorded measurements of Cell Viability, one per entry
# Tested on: B cell
# EXPERIMENT SUMMARY: Cytotoxicity screening of chemical probes in isolated B cell assay. Data is normalized to DMSO control, the cell viability average of replicates are reported. Reduction of ATP level more than 20% indicate compromised cell health status.
# APPLIED CONDITIONS: human, 0.1 µM
Report the value in % with no unit label.

Answered examples (5):
COMPOUND	MEASURED QUANTITY	UNIT INFO	VALUE
O=C(NCc1ncc(C(F)(F)F)cc1Cl)c1ccc2c(c1)C1(CCS(=O)(=O)CC1)[C@H](C1CC1)N2S(=O)(=O)c1ccc(F)cc1	Cell Viability	%	98.8405
CNC(=O)c1ccc(Nc2ncc(C(F)(F)F)c(NCc3nccnc3N(C)S(C)(=O)=O)n2)cc1	Cell Viability	%	103.534
CCOC(=O)c1cc2cc(-c3cc(C(=O)NCc4ccc(C(=O)O)cc4)nn3C)ccc2[nH]1	Cell Viability	%	99.7292
O=C(O)[C@H]1[C@H](Cn2nnc3ccccc3c2=O)CC[C@@H]1C(=O)c1ccc(OCCC2CCOCC2)cc1	Cell Viability	%	98.8077
CS(=O)(=O)N1CCCC(NC(=O)[C@H](CCC2CCCCC2)NC(=O)c2ccc(CNC(=O)c3cnc4ccccn34)cc2)C1 (stereo partly specified)	Cell Viability	%	99.1038

Q: Value wanted: Cell Viability (B cell) of entry "Cc1c[nH]c2nccc(Oc3c(F)cc(Nc4cc(Cl)nc(N)n4)cc3F)c12"
Ans: 99.4175

###

# Tested on: B cell
# EXPERIMENT SUMMARY: Cytotoxicity screening of chemical probes in isolated B cell assay. Data is normalized to DMSO control, the cell viability average of replicates are reported. Reduction of ATP level more than 20% indicate compromised cell health status.
# APPLIED CONDITIONS: human, 1 µM
Recorded measurements of Cell Viability, one per entry
Report the value in % with no unit label.

COMPOUND	Cell Viability [%]
O=C(/C=C/N1C[C@H]2C[C@@H]1CN2c1ccccn1)c1ccccc1O	91.7355
Cc1cccc(-c2cnc3occ(-c4ccc(C(=O)O)c(C5CCCC5)c4)c3c2)c1	94.5514
CSc1cc2c(cc1C(F)(F)F)N(C(=O)Nc1cccnc1)CC2	99.9626
COc1cc(-c2cn(C)c(=O)c3cnccc23)c(OC)cc1CN(C)C	95.7323
CN1CCN(c2ccc(-c3cccc(CN4CCOCC4)c3)cc2NC(=O)c2c[nH]c(=O)cc2C(F)(F)F)CC1	99.6552

Q: Value wanted: Cell Viability (B cell) of entry "Cl.Cl.NC1(c2ccc(-c3nc4ccn5c(=O)[nH]nc5c4cc3-c3ccccc3)cc2)CCC1"
Ans: 85.9288

Q: Value wanted: Cell Viability (B cell) of entry "COc1cc(OC)cc(-c2noc(N3CCN(C)C4(CCN(c5ccnc(C)c5)CC4)C3)n2)c1"
Ans: 97.1072

Q: Value wanted: Cell Viability (B cell) of entry "Cc1nnc2c3ccccc3c(N[C@@H](C)[C@H](c3ccccc3)N(C)C)nn12"
Ans: 95.5642
